Molecular target: T1, Human Alpha-1 antitrypsin (AAT) (human, UniProt P01009 25-418)
T1 construct: Pure AAT in buffer, as used in the isotherm and breakthrough studies; also called α-1 antitrypsin; human AAT
T1 sequence (P01009 25-418 limits assumed): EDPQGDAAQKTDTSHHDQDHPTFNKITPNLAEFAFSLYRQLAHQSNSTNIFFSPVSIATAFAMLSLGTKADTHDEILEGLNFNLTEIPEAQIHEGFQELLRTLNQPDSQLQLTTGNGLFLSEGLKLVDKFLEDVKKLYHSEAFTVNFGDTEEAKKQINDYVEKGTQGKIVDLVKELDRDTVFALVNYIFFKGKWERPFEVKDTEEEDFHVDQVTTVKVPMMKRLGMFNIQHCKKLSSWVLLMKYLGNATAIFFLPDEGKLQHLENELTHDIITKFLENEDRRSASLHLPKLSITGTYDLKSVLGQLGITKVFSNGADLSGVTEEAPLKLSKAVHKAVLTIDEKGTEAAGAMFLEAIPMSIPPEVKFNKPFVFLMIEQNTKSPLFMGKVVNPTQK
Test: static adsorption isotherm, pure AAT in PBS pH 7.4, Langmuir fit
No end group written: not given here.
MEASURE_NAME: Qmax (mgAAT per mLR)

SHWHWAG-{Toyopearl AF‑Amino‑650M resin} (not fully specified; printed as SHWHWAG-Toyopearl) [SHWHWAG-Toyopearl] ... 7

[P] ANAKIKKKG-{Toyopearl AF‑Amino‑650M resin} (not fully specified; printed as ANAKIKKKG-Toyopearl) [ANAKIKKKG-Toyopearl]
[Q] FEKWAKAHG-{Toyopearl AF‑Amino‑650M resin} (not fully specified; printed as FEKWAKAHG-Toyopearl) [FEKWAKAHG-Toyopearl]
[in] Which of the two items, P and Q , has the greater recorded Qmax? Your answer should be the label of the entry you select.
[out] Q
(Q: 5.1 mgAAT per mLR, P: 3.51 mgAAT per mLR)
